# Test system: SF-268
# assay overview: NCI tumour cell line growth inhibition, 48 h
Active and inactive are the calls of the source. Rule as the data show it: active = GI50 up to about 1.1 µM and inactive = higher.
I'd appreciate it if you could supply GI50 values for the items below.

Any idea what its GI50 is? The compound is C[C@]12CC[C@H](O)CC1=CC[C@@H]1[C@@H]2CC[C@]2(C)C(=O)/C(=C/c3ccc([N+](=O)[O-])cc3)C[C@@H]12 6.85 µM (inactive)

And what about the compound CC(C)CCCC(C)[C@H]1CC[C@H]2[C@@H]3CC[C@H]4C[C@@H](CCC=C(c5cc(Cl)c(O)c(C(=O)OC(C)(C)C)c5)c5cc(Cl)c(O)c(C(=O)OC(C)(C)C)c5)CC[C@]4(C)[C@H]3CC[C@]12C (stereo partly drawn) ? > 50 µM (inactive)

And what about the compound COc1cc(C2c3cc4c(c(O)c3C(=O)C3CCC(=O)N32)OCO4)cc(OC)c1OC (stereo not drawn) ? 57 µM (inactive)

----------
# Test system: Hs-578T
# assay overview: NCI tumour cell line growth inhibition, 48 h
Calls of active or inactive are those of the source. Rule as the data show it: active = GI50 up to about 1.1 µM and inactive = higher.
I'd appreciate it if you could supply GI50 values for the items below.

Any idea what its GI50 is? The compound is CN(/N=C\c1ccc2ccccc2c1)C1=NCCN1 20.4 µM (inactive)

And what about the compound O=C1CCC(=O)N1n1c(Cc2ccc(Cl)cc2)n[nH]c1=O ? > 100 µM (inactive)

And what about the compound Nc1nc(Cc2ccccc2)nc(Cc2ccccc2)c1-c1ccccc1 ? 85.7 µM (inactive)

And what about the compound COC(=O)C1(C(=O)OC)Cc2ccc(OC)cc2C2=C1C(=O)c1ccccc1C2=O ? 8.93 µM (inactive)

And what about the compound Cc1c(N2C(=O)CS(=O)(=O)C2c2cccc(Oc3ccccc3)c2)c(=O)n(-c2ccccc2)n1C (stereo not given) ? 30.9 µM (inactive)

And what about the compound CC(C)(C)NC(=S)N/N=C/c1ccccn1 ? > 32.2 µM (inactive)

And what about the compound CC1(C)C=C(S(=O)(=O)c2ccccc2)Oc2ccccc2O1 ? 64.9 µM (inactive)

And what about the compound C#C[C@]1(O)CC[C@H]2[C@@H]3CCC4=C/C(=N\OCCN5CCCC5)CC[C@]4(C)[C@H]3CC[C@@]21C ? 6.25 µM (inactive)

And what about the compound CCOC(=O)c1c(N2CCCC2)nsc1Nc1ccccc1 ? 60 µM (inactive)

And what about the compound O=c1cnn(CCOCP(=O)(O)O)c(=O)[nH]1 ? > 100 µM (inactive)

----------
# Test system: HCT-116
# assay overview: NCI tumour cell line growth inhibition, 48 h
Activity calls are given as the source filed them. Cut-off read from the data, not from the text of the source: active = GI50 up to about 1.1 µM and inactive = higher.
measured parameter: GI50

Any idea what its GI50 is? The molecule is CC1(C)CC2=NOS3=C2C(=NO3)C1c1ccccn1 (stereo not drawn) 48.8 µM (inactive)

And what about the molecule CC(CCC[C@H](C)CO)[C@H]1[C@@H](O)C(O)C2[C@@H]3C[C@@H](O)C4(O)C[C@@H](O)CC[C@]4(C)C3CC[C@@]21C (stereo partly drawn) ? > 100 µM (inactive)

And what about the molecule C=C1C(NC)CCC23CC24CCC2(C)C(C(C)=O)C(O)CC2(C)C4CCC13 (stereo not drawn) ? 70.3 µM (inactive)

And what about the molecule COC1OC(Cn2c(C)nc(Br)c2Br)C(O)C(O)C1O (stereo not drawn) ? > 100 µM (inactive)

And what about the molecule CC(=N\N)/C(C)=N/N=C(C)/C(C)=N/N=C(C)/C(C)=N/N=C(C)/C(C)=N/N ? > 100 µM (inactive)

And what about the molecule O=C(O)c1c(-c2nccc3ccccc23)[nH]c(-c2ccccc2)c1S(=O)(=O)O ? > 100 µM (inactive)

And what about the molecule O=C1C(c2ccccc2)=C(c2ccccc2)C(c2ccc(Sc3ccc(C4=C(c5ccccc5)C(=O)C(c5ccccc5)=C4c4ccccc4)cc3)cc2)=C1c1ccccc1 ? > 100 µM (inactive)

And what about the molecule N/C(=N\O)N/N=C/c1ccc(O)c(O)c1 ? > 100 µM (inactive)

And what about the molecule COc1cc2c(c(O)c1C)C(=O)C(Cl)=CC2=O ? 8.28 µM (inactive)

And what about the molecule CCCCc1c2c(nc3c1CCc1cc(C=O)c(N)nc1-3)/C(=C/c1ccccc1)CCC2 ? > 100 µM (inactive)

And what about the molecule NC(N)=NCCC(O)(P(=O)(O)O)P(=O)(O)O ? > 100 µM (inactive)

And what about the molecule O=C(Nc1ccn(C2CCC(CO)O2)c(=O)n1)c1ccccc1 (stereo not drawn) ? > 100 µM (inactive)

And what about the molecule COc1ccc2oc3c(OC)c(OC)c(OC)cc3c(=O)c2c1 ? > 100 µM (inactive)

And what about the molecule CNC(=O)N(CCC#N)CCCN(C(=O)N(C)C)c1ccccc1 ? > 100 µM (inactive)

And what about the molecule C[C@]12CCC(=O)C(O)=C1CC[C@@H]1C2CC[C@]2(C)NC(=O)CCC12 (stereo partly drawn) ? > 100 µM (inactive)

And what about the molecule CCNC(=O)O/N=C1\CCC2[C@@H]3CC=C4C[C@@H](OC(=O)NCC)CC[C@]4(C)C3CC[C@]12C (stereo partly drawn) ? 0.57 µM (active)

And what about the molecule Cc1cc(C)nc(NS(=O)(=O)c2ccc(Nc3c4ccccc4nc4c(C(=O)Nc5ccc(S(N)(=O)=O)cc5)cccc34)cc2)n1 ? 83.8 µM (inactive)

And what about the molecule OC1(C(Sc2ccccc2)Sc2ccccc2)CCCCCC1 ? 27.8 µM (inactive)

----------
# Tested on: ACHN
# assay overview: NCI tumour cell line growth inhibition, 48 h
Calls of active or inactive are those of the source. Cut-off read from the data, not from the text of the source: active = GI50 up to about 1.1 µM and inactive = higher.
measured parameter: GI50

Any idea what its GI50 is? The compound is CCCCI(O)OS(=O)(=O)c1ccc(C)cc1 > 100 µM (inactive)

And what about the compound NC(=O)C1CCN(Cc2c(Cl)c(Cl)c(CN3CCC(C(N)=O)CC3)c(Cl)c2Cl)CC1 ? > 100 µM (inactive)

And what about the compound Cc1nc2sccn2c1C(=O)OCCOCCOCCOCCOC(=O)c1c(C)nc2sccn12 ? > 100 µM (inactive)

And what about the compound N#C/N=C(/NCc1ccccc1)N(Cc1ccccc1)Cc1ccccc1 ? > 10 µM (inactive)

And what about the compound O=C(CC1(O)C(=O)Nc2ccccc21)c1cccc(O)c1 (configuration not stated) ? > 100 µM (inactive)

And what about the compound COc1cccc2c1OC(c1cccc3ccccc13)C([N+](=O)[O-])=C2 (configuration not stated) ? 1.6 µM (inactive)

And what about the compound CN(C)CS/C(N)=N\C(O)C(Cl)(Cl)Cl (configuration not stated) ? > 100 µM (inactive)

And what about the compound COc1ccc2[nH]c(Cl)c(/C=C3/C(=O)Nc4cc(C)c(OC)cc43)c2c1 ? 9.53 µM (inactive)

And what about the compound CCNC(=S)NNC(=O)c1csc(NC(=S)NC2CCCCC2)n1 ? 7 µM (inactive)

And what about the compound CC(=O)OCC1=C(COC(C)=O)C(=O)c2c(O)ccc(O)c2C1=O ? 10.2 µM (inactive)

And what about the compound COc1ccc(CC/N=C2\CCC(C(=O)NCCc3ccc(OC)c(OC)c3)N2)cc1OC (configuration not stated) ? > 100 µM (inactive)

And what about the compound O=c1[nH]c2c(c(=O)[nH]1)SC(c1ccccc1)C2 (configuration not stated) ? > 100 µM (inactive)

----------
# System: MOLT-4
# assay overview: NCI tumour cell line growth inhibition, 48 h
The source made the active and inactive calls. Cut-off read from the data, not from the text of the source: active = GI50 up to about 1.1 µM and inactive = higher.
Mark one answer only. Choices: active, inactive

Please share the test call associated with CCNC(=O)O/N=C1\CCC2[C@@H]3CC=C4C[C@@H](OC(=O)NCC)CC[C@]4(C)C3CC[C@]12C (some centres undefined) . active

And what about the compound c1ccc(-c2nc(-c3ccccc3SSc3ccccc3-c3nc(-c4ccccc4)nn3-c3ccccc3)n(-c3ccccc3)n2)cc1 ? inactive

And what about the compound Cc1ccc(-n2cc(-c3ccc(Cl)cc3)c3c(NN)ncnc32)cc1 ? inactive

And what about the compound CCOC(=O)N1CCc2cc(OC)c(OC)c3c2c1cc1cc(OC)c(OC)cc13 ? inactive

And what about the compound CCOC(=O)C(SCCO)C(C(=O)OCC)n1cnc2c(=O)[nH]c(NC(C)=O)nc21 (centres undefined) ? inactive

And what about the compound Nc1nc(Cc2ccccc2)nc(Cc2ccccc2)c1-c1ccccc1 ? inactive

And what about the compound O=C(CC(C(=O)c1cccs1)c1ccsc1)c1ccco1 (centres undefined) ? inactive

And what about the compound CCOC(=O)CCC(NC(=O)c1ccc(OCc2ccc3nc(-c4ccccc4)c(Cl)nc3c2)cc1)C(=O)OCC (centres undefined) ? inactive

And what about the compound CC[N+]1(C)CCC(O)(c2ccc(Cl)c(Cl)c2)C(C(=O)c2ccc(Cl)c(Cl)c2)C1 (centres undefined) ? inactive
